biological target: Cholecystokinin receptor type A (Homo sapiens, UniProt P32238, I352A); assay: Inhibition of CCK-Induced inositol phosphate in Cos-7 cells expressing mutant CCK1R (I352A)
Recorded IC50 for the following compounds
Quantity measured: IC50 (nM)

INSERT INTO measurements (compound, observed_value) VALUES
  ('CC(C)(C)OC(=O)N[C@@H](Cc1c[nH]c2ccccc12)C(=O)N[C@@H]1CCCN2C(=O)N(c3cccc4ccccc34)C(=O)C[C@@H]12', 227),
  ('CC(C)(C)OC(=O)N[C@@H](Cc1c[nH]c2ccccc12)C(=O)N[C@@H]1CCCN2C(S)N(Cc3ccccc3)C(=O)C[C@@H]12 (stereo partly drawn)', 831),
  ('CC(C)(C)OC(=O)N[C@@H](Cc1c[nH]c2ccccc12)C(=O)N[C@@H]1CCCN2C(=O)N(c3ccccc3)C(=O)C[C@@H]12', 2290);
